Ref: patent US12384800B2

A collection of compounds and their measured MTMD
# Method: MTMD (Maximum Tolerated Multiple Dose) determination, iv weekly x 3
# Assay type: in vivo
# Run Parameters: mice; iv/Q7d × 3
Parameter Measured: MTMD (mg/kg)

Smiles String	Parameter Measured	Test Value
COc1c(C)cc2c(c1O)[C@@H]1[C@@H]3[C@@H]4SC[C@]5(NCCc6c5[nH]c5ccccc65)C(=O)OC[C@@H](c5c6c(c(C)c(OC(C)=O)c54)OCO6)N3[C@@H](O)[C@H](C2)N1C	MTMD	0.5
COc1ccc2oc3c(c2c1)CCN[C@]31CS[C@@H]2c3c(OC(C)=O)c(C)c4c(c3[C@H](COC1=O)N1[C@@H]2[C@H]2c3c(cc(C)c(OC)c3O)C[C@@H]([C@@H]1O)N2C)OCO4	MTMD	0.25
COc1c(C)cc2c(c1O)[C@@H]1[C@@H]3[C@@H]4SC[C@]5(N[C@@H](C)Cc6c5[nH]c5ccccc65)C(=O)OC[C@@H](c5c6c(c(C)c(OC(C)=O)c54)OCO6)N3[C@@H](O)[C@H](C2)N1C	MTMD	0.5
COc1ccc2[nH]c3c(c2c1)C[C@@H](CO)N[C@]31CS[C@@H]2c3c(OC(C)=O)c(C)c4c(c3[C@H](COC1=O)N1[C@@H]2[C@H]2c3c(cc(C)c(OC)c3O)C[C@@H]([C@@H]1O)N2C)OCO4	MTMD	0.75
COc1c(C)cc2c(c1O)[C@@H]1[C@@H]3[C@@H]4SC[C@]5(N[C@H](C)Cc6c5[nH]c5ccccc65)C(=O)OC[C@@H](c5c6c(c(C)c(OC(C)=O)c54)OCO6)N3[C@@H](O)[C@H](C2)N1C	MTMD	3.0
COc1c(C)cc2c(c1O)[C@@H]1[C@@H]3[C@@H]4SC[C@]5(N[C@@H](CO)Cc6c5[nH]c5ccccc65)C(=O)OC[C@@H](c5c6c(c(C)c(OC(C)=O)c54)OCO6)N3[C@@H](O)[C@H](C2)N1C	MTMD	0.30
COc1c(C)cc2c(c1O)[C@@H]1[C@@H]3[C@@H]4SC[C@]5(NCCc6c5oc5ccccc65)C(=O)OC[C@@H](c5c6c(c(C)c(OC(C)=O)c54)OCO6)N3[C@@H](O)[C@H](C2)N1C	MTMD	0.5
COc1ccc2[nH]c3c(c2c1)C[C@H](CO)N[C@]31CS[C@@H]2c3c(OC(C)=O)c(C)c4c(c3[C@H](COC1=O)N1[C@@H]2[C@H]2c3c(cc(C)c(OC)c3O)C[C@@H]([C@@H]1O)N2C)OCO4	MTMD	0.15

----------
# Test system: PSN1 cells (pancreas adenocarcinoma)
# Method: cells
# Run Parameters: read-out: LC50; PSN1; 50% net cell killing; 72 hours; SRB

Molecule	CC50
COc1c(C)cc2c(c1O)[C@@H]1[C@@H]3[C@@H]4SC[C@]5(NCCc6c5oc5ccccc65)C(=O)OC[C@@H](c5c6c(c(C)c(OC(C)=O)c54)OCO6)N3[C@@H](C#N)[C@H](C2)N1C	43.1 nM
COc1ccc2[nH]c3c(c2c1)C[C@H](CN)N[C@]31CS[C@@H]2c3c(OC(C)=O)c(C)c4c(c3[C@H](COC1=O)N1[C@@H]2[C@H]2c3c(cc(C)c(OC)c3O)C[C@@H]([C@@H]1C#N)N2C)OCO4	3.52 nM
COc1c(C)cc2c(c1O)[C@@H]1[C@@H]3[C@@H]4SC[C@]5(N[C@@H](CO)Cc6c5[nH]c5ccccc65)C(=O)OC[C@@H](c5c6c(c(C)c(OC(C)=O)c54)OCO6)N3[C@@H](C#N)[C@H](C2)N1C	> 126 nM
COc1c(C)cc2c(c1O)[C@@H]1[C@@H]3[C@@H]4SC[C@]5(N[C@H](C)Cc6c5[nH]c5ccccc65)C(=O)OC[C@@H](c5c6c(c(C)c(OC(C)=O)c54)OCO6)N3[C@@H](C#N)[C@H](C2)N1C [A, reference compound]	19.3 nM
COc1c(C)cc2c(c1O)[C@@H]1[C@@H]3[C@@H]4SC[C@]5(N[C@@H](C)Cc6c5[nH]c5ccccc65)C(=O)OC[C@@H](c5c6c(c(C)c(OC(C)=O)c54)OCO6)N3[C@@H](C#N)[C@H](C2)N1C [B, reference compound]	23.1 nM
COc1c(C)cc2c(c1O)[C@@H]1[C@@H]3[C@@H]4SC[C@]5(N[C@H](C(=O)O)Cc6c5[nH]c5ccccc65)C(=O)OC[C@@H](c5c6c(c(C)c(OC(C)=O)c54)OCO6)N3[C@@H](C#N)[C@H](C2)N1C [Compound 14-S, reference compound]	> 124 nM
COc1c(C)cc2c(c1O)[C@@H]1[C@@H]3[C@@H]4SC[C@]5(N[C@@H](CO)Cc6c5oc5ccccc65)C(=O)OC[C@@H](c5c6c(c(C)c(OC(C)=O)c54)OCO6)N3[C@@H](C#N)[C@H](C2)N1C	1.76 nM
COc1ccc2[nH]c3c(c2c1)C[C@@H](CN)N[C@]31CS[C@@H]2c3c(OC(C)=O)c(C)c4c(c3[C@H](COC1=O)N1[C@@H]2[C@H]2c3c(cc(C)c(OC)c3O)C[C@@H]([C@@H]1C#N)N2C)OCO4	3.52 nM
COc1c(C)cc2c(c1O)[C@@H]1[C@@H]3[C@@H]4SC[C@]5(N[C@H](CO)Cc6c5oc5ccccc65)C(=O)OC[C@@H](c5c6c(c(C)c(OC(C)=O)c54)OCO6)N3[C@@H](C#N)[C@H](C2)N1C	15.1 nM
COc1ccc2oc3c(c2c1)CCN[C@]31CS[C@@H]2c3c(OC(C)=O)c(C)c4c(c3[C@H](COC1=O)N1[C@@H]2[C@H]2c3c(cc(C)c(OC)c3O)C[C@@H]([C@@H]1C#N)N2C)OCO4	> 126 nM
COc1ccc2[nH]c3c(c2c1)C[C@H](C(=O)O)N[C@]31CS[C@@H]2c3c(OC(C)=O)c(C)c4c(c3[C@H](COC1=O)N1[C@@H]2[C@H]2c3c(cc(C)c(OC)c3O)C[C@@H]([C@@H]1C#N)N2C)OCO4 [Compound 28-R, reference compound]	66.8 nM
COc1c(C)cc2c(c1O)[C@@H]1[C@@H]3[C@@H]4SC[C@]5(N[C@H](C)Cc6c5[nH]c5ccccc65)C(=O)OC[C@@H](c5c6c(c(C)c(OC(C)=O)c54)OCO6)N3[C@@H](O)[C@H](C2)N1C	65 nM
C=CCOC(=O)NC[C@@H]1Cc2c([nH]c3ccc(OC)cc23)[C@@]2(CS[C@@H]3c4c(OC(C)=O)c(C)c5c(c4[C@H](COC2=O)N2[C@@H]3[C@H]3c4c(cc(C)c(OC)c4O)C[C@@H]([C@@H]2C#N)N3C)OCO5)N1	14.3 nM
C=CCOC(=O)NC[C@H]1Cc2c([nH]c3ccc(OC)cc23)[C@@]2(CS[C@@H]3c4c(OC(C)=O)c(C)c5c(c4[C@H](COC2=O)N2[C@@H]3[C@H]3c4c(cc(C)c(OC)c4O)C[C@@H]([C@@H]2C#N)N3C)OCO5)N1	6.73 nM

----------
# Tested on: HT1080 tumors
# Method: Human fibrosarcoma xenograft, total diameter (tumor + leg)
# Run Parameters: Day 5

Molecule	Measured On	Unit Abbrev	Total diameter (tumor + leg)
COc1c(C)cc2c(c1O)[C@@H]1[C@@H]3[C@@H]4SC[C@]5(N[C@@H](C)Cc6c5[nH]c5ccccc65)C(=O)OC[C@@H](c5c6c(c(C)c(OC(C)=O)c54)OCO6)N3[C@@H](O)[C@H](C2)N1C	HT1080 tumors	mm	7.5
COc1c(C)cc2c(c1O)[C@@H]1[C@@H]3[C@@H]4SC[C@]5(N[C@@H](CN)Cc6c5oc5ccccc65)C(=O)OC[C@@H](c5c6c(c(C)c(OC(C)=O)c54)OCO6)N3[C@@H](O)[C@H](C2)N1C	HT1080 tumors	mm	10.1
COc1ccc2[nH]c3c(c2c1)CCN[C@]31CS[C@@H]2c3c(OC(C)=O)c(C)c4c(c3[C@H](COC1=O)N1[C@@H]2[C@H]2c3c(cc(C)c(OC)c3O)C[C@@H]([C@@H]1O)N2C)OCO4 [PM01183, reference compound]	HT1080 tumors	mm	9.7
COc1c(C)cc2c(c1O)[C@@H]1[C@@H]3[C@@H]4SC[C@]5(N[C@@H](CN)Cc6c5[nH]c5ccccc65)C(=O)OC[C@@H](c5c6c(c(C)c(OC(C)=O)c54)OCO6)N3[C@@H](O)[C@H](C2)N1C	HT1080 tumors	mm	8.8
COc1c(C)cc2c(c1O)[C@@H]1[C@@H]3[C@@H]4SC[C@]5(N[C@H](C)Cc6c5[nH]c5ccccc65)C(=O)OC[C@@H](c5c6c(c(C)c(OC(C)=O)c54)OCO6)N3[C@@H](O)[C@H](C2)N1C	HT1080 tumors	mm	9.0
COc1c(C)cc2c(c1O)[C@@H]1[C@@H]3[C@@H]4SC[C@]5(N[C@H](CO)Cc6c5oc5ccccc65)C(=O)OC[C@@H](c5c6c(c(C)c(OC(C)=O)c54)OCO6)N3[C@@H](O)[C@H](C2)N1C	HT1080 tumors	mm	6.4
